// provenance: the supplement of paper PMC6757056

B1: library; a variant is named by its letters at N, in order (parent)
chain: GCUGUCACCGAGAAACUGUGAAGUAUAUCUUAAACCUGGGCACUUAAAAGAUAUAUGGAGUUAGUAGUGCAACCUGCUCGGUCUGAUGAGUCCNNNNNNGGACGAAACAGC

- Variants of: B1
- TEST_DESCRIPTION: normalized RNA/DNA level without ligand (relative to sTRSVctl = 100) (log10 (% of sTRSVctl)); HEK293T; ligand: cyclic di-GMP (c-di-GMP-II aptamer); higher = less ribozyme self-cleavage, higher mRNA level
- EXPERIMENTAL_SETUP: reporter: mCherry (pCS4076), ligand present: no
Collected normalized RNA/DNA level without ligand (log10) values appear next to each entry.
ENDPOINT_NAME: normalized RNA/DNA level without ligand (log10)

>>> value_measured("UUCAAU")
1.71
>>> value_measured("GCGGUG")
1.7
>>> value_measured("ACCACU")
1.61
>>> value_measured("ACAUGG")
1.44
>>> value_measured("CUAUAG")
1.68
>>> value_measured("GUUGGC")
1.61
>>> value_measured("UGGAUC")
1.7
>>> value_measured("CUGGGA")
1.55
>>> value_measured("UUAUAU")
1.68
>>> value_measured("UACCAU")
1.66
>>> value_measured("GUUAGU")
1.66
>>> value_measured("CAUGGG")
1.68
>>> value_measured("UUGGGC")
1.72
>>> value_measured("CACGCA")
1.61
>>> value_measured("AUUUCA")
1.7
>>> value_measured("UCGACA")
1.62
>>> value_measured("CCGAGG")
1.62
>>> value_measured("UCGCGC")
1.73
>>> value_measured("UUAAAU")
1.71
>>> value_measured("UCUGGC")
1.78
>>> value_measured("AGAUUA")
1.49
>>> value_measured("UGCCCA")
1.88
>>> value_measured("AAUACG")
1.6
>>> value_measured("UAGACA")
1.73
>>> value_measured("CGGAAC")
1.45
>>> value_measured("AAAGCG")
1.69
>>> value_measured("ACCCAC")
1.69
>>> value_measured("AAAUAA")
1.45
>>> value_measured("GUUUCA")
1.65
>>> value_measured("CCAAUU")
1.58
>>> value_measured("ACGGAU")
1.29
>>> value_measured("UUCAGG")
1.82
>>> value_measured("GAGCAG")
1.9
>>> value_measured("CCCCGG")
1.83
>>> value_measured("GGUCGC")
1.74
>>> value_measured("UUUGCC")
1.84
>>> value_measured("AGGAAU")
1.6
>>> value_measured("UUCCGC")
1.77
>>> value_measured("CUCUAC")
1.69
>>> value_measured("UAGGGU")
1.61
>>> value_measured("UCGAUA")
1.35
>>> value_measured("GUUGUU")
1.67
>>> value_measured("UAUUGA")
1.67
>>> value_measured("UGCGAC")
1.68
>>> value_measured("UCAAAG")
1.6
